This collection of values is drawn from ChEMBL document CHEMBL1201862.

# Test system: MCF7
# protocol: NCI tumour cell line growth inhibition, 48 h
Where a name gives a salt, the structure may show the parent alone. Active and inactive are the calls of the source. Cut-off read from the data, not from the text of the source: active = GI50 up to about 1.1 µM and inactive = higher.
Reply using exactly one outcome from True = active, False = inactive

Look up the recorded call for COCOC1/C=C/CCCCC2=C(C)C=C(C1)O2 (centres undefined) in this test. False

Look up the recorded call for COC(=O)C1c2cc3c(cc2C(OC2OC(C)C(OC)C(C)(OC)C2OC)CC1(C)O)C(=O)c1c(O)cc2c(c1C3=O)OC1OC2(C)C(O)C([N+](C)(C)[O-])C1O (centres undefined) in this test. True

Look up the recorded call for COC(=O)C1=CO[C@@H](OC2OC(CO)C(O)C(O)C2O)[C@H]2[C@@H](C)[C@@H](O)[C@@H](O)[C@@H]12 (some centres undefined) in this test. False

Look up the recorded call for CC(C)(C)n1c(=O)n2c(-c3ccccc3)c(-c3ccccc3)n2c1=O in this test. False

Look up the recorded call for CC(=O)Oc1c(C)c2c(O)c3c1C1=C(OCOC1=C(C)C3=O)/C(C)=C/C(C)(O)C(O)C(C)C(O)C1C(=O)OC(C(C)C1O)C(C)(O)/C=C\C=C(C)C(=O)N2 (centres undefined) in this test. False

Look up the recorded call for [N-]=[N+]=Nc1ccccc1-c1ccccc1[N+](=O)[O-] in this test. False

Look up the recorded call for Cn1c2nc3ccccc3c-2cc2ccccc21 [NEOCRYPTOLEPINE HYDROCHLORIDE] in this test. False

Look up the recorded call for CNc1ncnc(Sc2nc(N)nc3[nH]cnc23)c1[N+](=O)[O-] in this test. True

Look up the recorded call for CCc1ccc2oc(-c3cc(O)c(-c4nc5cc(CC)ccc5o4)cc3O)nc2c1 in this test. False

Look up the recorded call for O=C(O)CCC(=O)c1ccc2sc3ccccc3c2c1 in this test. False

Look up the recorded call for CN(C)S(=O)(=O)c1nc(Cl)c2nc[nH]c2n1 in this test. False

Look up the recorded call for CS(=O)(=O)O[C@H]1[C@H](O)c2ccccc2[C@@H]1N=[N+]=[N-] in this test. False

Look up the recorded call for CCOC(=O)C(NC(=O)c1cccc(Cl)c1)(Nc1cccc(C)c1)C(F)(F)F (centres undefined) in this test. False

Look up the recorded call for CCOC(=O)CSc1nc(-c2ccc(OC)cc2)c(C#N)c(=O)[nH]1 in this test. False

Look up the recorded call for COc1cc2ccc1OCc1cccc(n1)COc1ccc(cc1OC)/C=N\c1ccc(cc1)-c1ccc(cc1)/N=C\2 in this test. False

Look up the recorded call for CCN1C=C/C(=C\C=C\c2cc[n+](CC)c3ccccc23)c2ccccc21 in this test. False

Look up the recorded call for CC(C)CC(NC(=O)C(COc1ccc([N+](=O)[O-])cc1)Cc1ccccc1)C(=O)Nc1ccccc1 (centres undefined) in this test. False

Look up the recorded call for CCOP(=O)(OCC)C(c1ccc(F)cc1)N(C(=O)NC(F)(F)F)c1cccc(C(F)(F)F)c1 (centres undefined) in this test. False

Look up the recorded call for CC1(C)Oc2ccc(Cl)cc2C12CC2 in this test. False

Look up the recorded call for Cc1c2c(OCC3CCCCO3)nn(C)c(=O)c2c(C)n1-c1ccccc1 (centres undefined) in this test. False

Look up the recorded call for O=C1OC(c2ccccc2)=N/C1=C\c1cccnc1 in this test. False

Look up the recorded call for O=C(NCCCNCCCNC(=O)c1cc(-c2ccccc2)nc2ccccc12)c1cc(-c2ccccc2)nc2ccccc12 in this test. False

Look up the recorded call for CC(=N/NC(=S)N1CCCCCC1)/C(C)=N\NC(=S)N1CCCCCC1 in this test. False

Look up the recorded call for NC(=O)C(=O)C(c1ccccc1)S(=O)(=O)Cc1ccccc1 (centres undefined) in this test. False

Look up the recorded call for Cc1cccc(N2CCN(S(=O)(=O)c3ccc(Cl)cc3)C2=N)c1C in this test. False

Look up the recorded call for Cc1ccccc1C(=O)C#Cc1cn(C2CC(O)C(CO)O2)c(=O)[nH]c1=O (centres undefined) in this test. False

Look up the recorded call for c1ccc(-c2cc(-c3cc(-c4ccccc4)no3)on2)cc1 in this test. False

Look up the recorded call for O=C(CN1CCOCC1)CC(O)(C(F)(F)F)C(F)(F)F in this test. False

Look up the recorded call for CC(C)C1=CC(=O)C(C)(C2C(O)CC3(C)C4CC=C5C(CCC(OC6OC(CO)C(O)C(O)C6OC6OC(C)C(O)C(O)C6O)C5(C)C)C4(C)C(=O)CC23C)O1 (centres undefined) in this test. False

---

I'd be grateful if you could share measured GI50 for these entries.
# System: MDA-MB-231
# protocol: NCI tumour cell line growth inhibition, 48 h
Calls of active or inactive are those of the source. Rule as the data show it: active = GI50 up to about 1.1 µM and inactive = higher.

So, C1=C2C3=[N+](CCCC3)CC2Cc2ccsc21 (centres undefined) ? Its GI50 was > 100 µM (inactive)

So, CCOC(=O)CCC(NC(=O)c1ccc(NCc2ccc3nc(OC)c(OC)nc3c2)c2ccccc12)C(=O)OCC (centres undefined) ? Its GI50 was 71.1 µM (inactive)

So, [N-]=[N+]=Nc1ccccc1C(=O)N1C(=O)c2ccccc2C(=O)N(C(=O)c2ccccc2N=[N+]=[N-])c2ccccc21 ? Its GI50 was 52.8 µM (inactive)

So, CC[C@@H]1/C=C/C=C/C[C@H](C)[C@@H](O)[C@](C)(O)C(=O)[C@H](C)[C@@H](O)[C@H](C)C(=O)[C@H](C)[C@@H](O)[C@H](C)/C=C/C(=O)O[C@H]2[C@@H](C)[C@@H](CC1)O[C@]1(O[C@H](CC(C)O)[C@H](C)CC1=O)[C@@H]2C (some centres undefined) ? Its GI50 was 3.72 µM (inactive)

So, COc1ccc(-n2c(=O)c3nc(S)[nH]c3n(-c3ccc(OC)cc3)c2=S)cc1 ? Its GI50 was > 100 µM (inactive)

So, CCCC(=O)OC1CC(n2cc(F)c(=O)[nH]c2=O)OC1CO (centres undefined) ? Its GI50 was > 8.95 µM (inactive)

So, CC(C)Oc1cc(O)c2c(c1)OCC=C2CCC(=O)O ? Its GI50 was 36.8 µM (inactive)

So, [N-]=[N+]=CC(=O)OC1Cc2ccccc2C1 ? Its GI50 was > 100 µM (inactive)

So, O=[N+]([O-])/C=C/c1cccc(F)c1 ? Its GI50 was 16.4 µM (inactive)

So, Cc1ccccc1-n1c(=O)nc2n(-c3ccc(C(C)(C)C)cc3)c3ccccc3cc-2c1=O ? Its GI50 was 19 µM (inactive)

So, COc1nc2nccnc2c(=O)n1C ? Its GI50 was > 10 µM (inactive)

So, Cc1nc2ccccc2c(=O)n1NC(=O)c1ccc([N+](=O)[O-])cc1 ? Its GI50 was > 100 µM (inactive)

So, CCOC(=O)C1(C(=O)OCC)C[C@H]2CON=C2[C@@H]1c1ccc(C(F)(F)F)cc1 ? Its GI50 was > 100 µM (inactive)

So, OC[C@H]1O[C@@H](n2cnc3c(S)ncnc32)[C@H](O)[C@@H]1O [THIOINOSINE] ? Its GI50 was > 2500 µM (inactive)

---

# Tested on: COLO 205
# protocol: NCI tumour cell line growth inhibition, 48 h
Active and inactive are the calls of the source. No stated cut-off is given here; in the data, active = GI50 up to about 1.1 µM and inactive = higher.
result-type: GI50

# GI50 measured on COLO 205 for item O=C(O)CCC(NC(=O)c1ccc(CNc2nc3ccccc3nc2C(=O)O)cc1)C(=O)O (stereo not drawn) = > 100 µM (inactive)

# GI50 measured on COLO 205 for item CCN(CC)CCNC(=O)c1cccc2cc3ccccc3nc12 = 4.44 µM (inactive)

# GI50 measured on COLO 205 for item CCCCN(CCCC)CC(O)c1cc(-c2ccc(C(F)(F)F)cc2)nc(-c2ccc(C(F)(F)F)cc2)c1 (stereo not drawn) = 79.8 µM (inactive)

# GI50 measured on COLO 205 for item O=C(O)c1ccccc1/C=N\N(CCO)C1=NCCN1 = > 100 µM (inactive)

# GI50 measured on COLO 205 for item CCn1c2c(c3ccccc31)C(c1ccccc1)CC1C(=O)N(c3ccccc3)C(=O)C21 (stereo not drawn) = > 100 µM (inactive)

# GI50 measured on COLO 205 for item Cc1nc(-n2nc(-c3ccccc3)cc2-c2ccccc2)sc1C(=O)/C=C/c1ccccc1 = > 100 µM (inactive)

# GI50 measured on COLO 205 for item O=[N+]([O-])C(C=C(n1nnc2ccccc21)n1nnc2ccccc21)=C(n1nnc2ccccc21)n1nnc2ccccc21 = > 100 µM (inactive)

# GI50 measured on COLO 205 for item O=P1(C(O)/C=C/c2ccccc2)N(Cc2ccccc2)[C@H](c2ccccc2)[C@@H](c2ccccc2)N1Cc1ccccc1 (stereo partly drawn) = 11.9 µM (inactive)
